Source: paper PMC12102759

B1: RNF115 peptide 69-84 (E3 ubiquitin-protein ligase RNF115), 16-mer library wild type / MDM2 SWIB (MDM2 SWIB/MDM2 domain, residues 17-125) (parent)
chain 1: THFAELWGHLDHTMFF
chain 2: SQIPASEQETLVRPKPLLLKLLKSVGAQKDTYTMKEVLFYLGQYIMTKRLYDEKQQHIVYCSNDLLGDLFGVPSFSVKEHRKIYTMIYRNLVVVNQQESSDSGTSVSEN

variants of: B1; test: proteomic peptide phage display deep mutational scan (ProP-PD DMS): M13 P8 16-mer library selected against immobilised GST-tagged bait for four days (rounds), NGS of the eluted pools per day and pseudo-replica; conditions: with MDM2 SWIB (MDM2 SWIB/MDM2 domain, residues 17-125); bait immobilised on MaxiSorp plates (10 µg), library pre-cleared on GST, 2 h binding at 4 °C, five washes; one round per day, days 1-4; value from days 2 and 3; keep out of graded; scale: average fractional NGS count over selection days 2 and 3
Endpoint: screen value
Format: numeric value only, no unit, no commentary.

The cases that follow already have their screen value on record.
chain 1 T13E
4.86e-05
chain 1 L6S
0
chain 1 L10A
0
chain 1 F3K
0
chain 1 H12R
4.65e-05

Please give the measured screen value for this variant: chain 1 L10G 0

Entry chain 1 E5K has what screen value? 0

Given the entry chain 1 A4R , report its measured screen value. 5.64e-05

Fill blank: measured screen value of the variant chain 1 F15E is ____. 5.35e-05

Query (variant): chain 1 E5P ; field requested: screen value 0

Entry chain 1 H9L has what screen value? 3.74e-05
